B1: Osa-1-4 twister ribozyme (parent)
chain: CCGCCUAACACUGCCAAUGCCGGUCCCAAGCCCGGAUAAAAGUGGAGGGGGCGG

Variants of: B1
assay_info: self-cleavage, relative activity (ratio to wild type); higher = more cleavage; co-transcriptional
Listing of recorded self-cleavage by entry.

Here is how some variants turned out for self-cleavage.
• CCGCCUAACACUGCCAAUUCCGGUCCCAAGCCCGGAUAAAAGUGGAGGGGGCGU [G19U G54U] = 0.54
• CCGCCUAACACUGCCAAUGCCGGUCCCAAGACCGGAUAAAAGUGGAGGGAGCGG [C31A G50A] = 0.04
• CCGCCUAUCAUUGCCAAUGCCGGUCCCAAGCCCGGAUAAAAGUGGAGGGGGCGG [A8U C11U] = 0.11
• CCGCCUAACACUGCCAAUGCCGGUCCCAACCCCGGAUAAAAGUGGAGGGGGCGG [G30C] = 0.04
• CCGCCUAACACUGCCAAUGCCGGACCCAAGCCCGGAUAAAAGUGGAGGGGGAGG [C52A U24A] = 0.14

Exercise: Requested read-out: self-cleavage. Entry: CCGCCUAACACUGCCAAUGUCGGUCCCAAGCCCGGAUAGAAGUGGAGGGGGCGG [A39G C20U]
Solution: 0.96

Exercise: Look at this variant and give its reported self-cleavage. CCGCCUAACACUGCCAAUGCCGGGCCCAAGCCCGGUUAAAAGUGGAGGGGGCGG [A36U U24G]
Solution: 0.03

Exercise: Entry CCGCCUAACACUGACAAUGCCUGUCCCAAGCCCGGAUAAAAGUGGAGGGGGCGG [C14A G22U] : reported self-cleavage = ?
Solution: 0.05
